System: HEK293
protocol: Cytotoxic Profiling of Annotated Libraries Using Quantitative High-Throughput Screening (AID 1296008); note: nearly all actives have a fitted effect of over 60% in size; for max response: % is set by controls: 0 for no effect and ±100 for the full control effect
statedConditions: Five cell lines viability, CellTiter-Glo ATP luminescence, 48-72 h; hits give low values
Inconclusive results are not listed.
Listed molecules paired with reported max response

molecule | measuredOn | unitsLabel | max response
Cc1cn(-c2cc(NC(=O)c3ccc(C)c(Nc4nccc(-c5cnccn5)n4)c3)cc(C(F)(F)F)c2)cn1 | HEK293 | % | -20.5
CC1=C[C@H](O)[C@H]2C(C)(C)CCC[C@]2(C)[C@@]1(O)CO | HEK293 | % | -4.11
C=C1CCC2C(C)(C)CC(=O)CC2(C)C1CCC(C)CCO (centres undefined) | HEK293 | % | 1.61
COC(=O)[C@@H](NC(=O)[C@H](CC(C)C)NC(=O)N(Cc1ccccc1)C[C@@H](O)[C@H](Cc1ccccc1)NC(=O)OC(C)(C)C)C(C)C | HEK293 | % | 0.117

* * *

Tested on: NIH3T3
protocol: qHTS assay to identify novel small-molecules to repurpose for Merkel cell carcinoma treatment (AID 1296009); note: nearly all actives have a fitted effect of over 60% in size
statedConditions: MCC and control cell lines, CellTiter-Glo viability, 72 h; at 44.8 µM (top of the series) unless noted
Records with an inconclusive call do not appear. Activity calls are given as the source filed them. The call rests on the fitted dose curve; in most records, active means well fitted inhibition curve with a large enough effect; inconclusive means small, poorly fitted or top-dose-only effect; inactive means flat fitted curve, though single readings scatter.

compound | measuredOn | outcome
O=C(O)c1cccc(C(=O)CCC2OC(n3cnc4c(=O)[nH]cnc43)C(O)C2O)c1 (configuration not stated) | NIH3T3 | inactive [at 17.4 µM]
C[C@H](O)C(O)(C(=O)OCc1ccccc1NC(=O)CCC(N)C(=O)O)[C@H](C)O (some centres not stated) | NIH3T3 | inactive [at 17.4 µM]
CC(C)C(O)(CO)CCO[C@@H]1O[C@H](CO[C@H]2OC[C@](O)(CO)[C@H]2O)[C@@H](O)[C@H](O)[C@H]1O (some centres not stated) | NIH3T3 | inactive [at 17.4 µM]
CC(=O)O[C@@H]1[C@@H](O)[C@H](C)O[C@@H](O[C@H]2[C@@H]3C=CO[C@@H](O[C@@H]4O[C@H](CO)[C@@H](O)[C@H](O)[C@H]4OC(C)=O)[C@@H]3[C@@]3(CO)O[C@@H]23)[C@@H]1OC(=O)/C=C/c1ccc(O)cc1 | NIH3T3 | inactive [at 17.4 µM]
C=C1CC/C=C(/CO)C(=O)C[C@@H]2[C@@H]1C[C@@]2(C)COC(C)=O | NIH3T3 | inactive
CC(=O)N[C@H](Cc1c[nH]c2ccccc12)C(=O)OCc1cc(C(F)(F)F)cc(C(F)(F)F)c1 | NIH3T3 | inactive

* * *

Tested on: HEK293
protocol: Cytotoxic Profiling of Annotated Libraries Using Quantitative High-Throughput Screening (AID 1296008); note: nearly all actives have a fitted effect of over 60% in size
statedConditions: Five cell lines viability, CellTiter-Glo ATP luminescence, 48-72 h
Inconclusive results are not listed. Calls of active or inactive are those of the source. The call rests on the fitted dose curve; in most records, active means well fitted inhibition curve with a large enough effect; inconclusive means small, poorly fitted or top-dose-only effect; inactive means flat fitted curve, though single readings scatter.
Labels: T (active), F (inactive)

compound | category
O=C(O[C@@H]1O[C@H](CO)[C@@H](O)[C@H](O)[C@H]1O)c1ccccc1 | F
COc1ccc2c(c1)N1C(=O)C[C@@]34C=CC[N@+]5([O-])CC[C@H]2[C@H](CC3)[C@@]145 | F
C[C@@H]1[C@H]2[C@H](O[C@@H]3O[C@H](CO)[C@@H](O)[C@H](O)[C@H]3O)OC=C(C(=O)O)[C@H]2C[C@@H]1OC(=O)/C=C/c1ccc(O)cc1 | F
C=C[C@]1(C)C[C@@H](OC(=O)CSC2C[C@H]3CC[C@@H](C2)N3C)[C@]2(C)[C@H](C)CC[C@]3(CCC(=O)[C@H]32)[C@@H](C)[C@@H]1O (stereo not given in full) | T
C=C(C)[C@@H]1CC[C@]2(C(=O)O)CC[C@]3(C)[C@H](CCC4[C@@]5(C)CCC(=O)C(C)(C)C5C(O)C[C@]43C)C12 (stereo not given in full) | T
C[C@]12CC/C(=N\OCC(=O)O)C=C1CC[C@@H]1[C@@H]2[C@@H](O)C[C@@]2(C)[C@H]1CC[C@]2(O)C(=O)CO | F
CC1CCC2C(C(=O)O)=CC3(O)CC(C)(C)CC123 (stereo not given) | F
C=C[C@H]1[C@H](O[C@@H]2O[C@H](CO)[C@@H](O)[C@H](O)[C@H]2O)OC=C2C(=O)N3Cc4c([nH]c5ccccc5c4=O)[C@@H]3C[C@H]21 | F
COc1ccccc1N1CCN(CCCCNC(=O)c2ccc(-c3cscn3)cc2)CC1 | T
Cc1ncc(NC(=O)c2ccc(CN3CCN(C)CC3)c(C(F)(F)F)c2)cc1Nc1nccc(-c2cccnc2)n1 | T
CC1(C)C=Cc2c(ccc3c2N=C2C(C)(C)[C@@H]4C[C@]56CCCN5C(=O)[C@@]4(C[C@]23O)NC6=O)O1 | F
O=C1NC(=O)/C(=C/c2cccc(C(F)(F)F)c2)S1 | F
CC1(C)CC[C@]2(C(=O)O)CC[C@]3(C)C(=CCC4[C@@]5(C)CC[C@H](O[C@H]6O[C@H](C(=O)O)[C@@H](O)[C@H](O[C@@H]7O[C@H](CO)[C@H](O)[C@H](O)[C@H]7O)[C@H]6O)C(C)(C)C5CC[C@]43C)[C@@H]2C1 (stereo not given in full) | F
CC(=O)OC1CC2(C)C(CCC(C)C23Cc2c(O)cc4c(c2O3)CNC4=O)C(C)(C)C1O (stereo not given) | F
C/C=C(\C)C1C(C)=CC2CCC(OS(=O)(=O)O)C(C)C2C1/C=C/C=C/C(=O)O (stereo not given) | F

* * *

Test system: NIH3T3
protocol: qHTS assay to identify novel small-molecules to repurpose for Merkel cell carcinoma treatment (AID 1296009); note: nearly all actives have a fitted effect of over 60% in size
statedConditions: MCC and control cell lines, CellTiter-Glo viability, 72 h; at 44.8 µM (top of the series) unless noted
Records with an inconclusive call do not appear. Calls of active or inactive are those of the source. The call rests on the fitted dose curve; in most records, active means well fitted inhibition curve with a large enough effect; inconclusive means small, poorly fitted or top-dose-only effect; inactive means flat fitted curve, though single readings scatter.

compound | outcome
O=C(OC[C@H]1O[C@@H](Oc2ccccc2CO)[C@H](O)[C@@H](O)[C@@H]1O)c1ccccc1 | inactive
C=C[C@H]1[C@H](O[C@@H]2O[C@H](CO)[C@@H](O)[C@H](O)[C@H]2O)OC=C(C(=O)OC)[C@H]1CC=O | inactive
CC(C)(O)C1CC=C(C(=O)OC[C@H]2O[C@@H](OC(=O)C3=CCC(C(C)(C)O)CC3)[C@H](O)[C@@H](O)[C@@H]2O)CC1 (some centres not stated) | inactive [at 17.4 µM]
FC(F)(F)Oc1ccc(-c2ccc3nnc(C(F)(F)F)n3c2)cc1 | inactive
COc1cc([C@H]2OC[C@](O)(Cc3ccc(O[C@@H]4O[C@H](CO)[C@@H](O)[C@H](O)[C@H]4O)c(OC)c3)[C@@H]2CO)ccc1O | inactive [at 17.4 µM]

* * *

Test system: HEK293
protocol: Cytotoxic Profiling of Annotated Libraries Using Quantitative High-Throughput Screening (AID 1296008); note: nearly all actives have a fitted effect of over 60% in size; for max response: % is set by controls: 0 for no effect and ±100 for the full control effect
statedConditions: Five cell lines viability, CellTiter-Glo ATP luminescence, 48-72 h; hits give low values
Results filed as inconclusive are left out.
readoutKind: max response (%)

compound | unitsLabel | endpointResult
NC(=O)C(O[C@@H]1O[C@H](CO[C@@H]2O[C@H](CO)[C@@H](O)[C@H](O)[C@H]2O)[C@@H](O)[C@H](O)[C@H]1O)c1ccccc1 (stereo not given in full) | % | -77.8
COCc1c(O)c(C(=O)O)c(C)c2c1OC(=O)c1c(C)cc(O)c(CO)c1O2 | % | -3.82
Fc1cccc(CN(C2=NCCN2)c2c(Cl)cccc2Cl)c1 | % | -13.5
CC1=C2C(=O)C=C(CO)C2[C@H]2OC(=O)[C@H](C)[C@@H]2[C@@H](OC(=O)Cc2ccc(O)cc2)C1 (stereo not given in full) | % | -2.2
CS(=O)(=O)c1ccccc1N1CCN(c2nc3c(c(=O)[nH]2)CSCC3)CC1 | % | 1.58

* * *

Tested on: PA-1
protocol: Primary qHTS to identify gynecologic anti-cancer compounds using libraries of approved drugs and bioactive compounds (AID 1345084); note: % is set by controls: 0 for no effect and ±100 for the full control effect; nearly all actives have a fitted effect of over 55% in size
statedConditions: Gynecologic cancer cell panel viability, ATPlite luminescence, 48 h; series mostly up to 57.5 µM
Records with an inconclusive call do not appear. Calls of active or inactive are those of the source. Calls follow the shape of the dose curve; as a rule, active = well fitted cell-killing curve with a large enough effect; inconclusive = small, poorly fitted or top-dose-only effect, or effect the other way; inactive = flat fitted curve, though single readings scatter. Where a SMILES comes first, the peptide text is derived from it. The star is where a group is joined. βNA = c1ccc2cc(N*)ccc2c1; Cbz = O=C(OCc1ccccc1)*
readoutKind: activity change, negative = cytotoxicity

compound | endpointResult
CC(C)=CCC[C@](C)(O[C@@H]1O[C@H](CO[C@@H]2O[C@@H](CO)[C@H](O)[C@H]2O[C@@H]2OC[C@@H](O)[C@H](O)[C@H]2O)[C@@H](O)[C@H](O)[C@H]1O)[C@H]1CC[C@]2(C)[C@@H]1[C@H](O)CC1[C@@]3(C)CC[C@H](O[C@@H]4O[C@H](CO)[C@@H](O)[C@H](O)[C@H]4O[C@@H]4O[C@H](CO)[C@@H](O)[C@H](O)[C@H]4O)C(C)(C)C3CC[C@]12C (stereo not given in full) | 11.1% [at 6.55 µM] (inactive)
CC(C)CC(NC(=O)OCc1ccccc1)C(=O)NC(CC(C)C)C(=O)NC(CCC(=O)O)C(=O)Nc1ccc2ccccc2c1 (stereo not drawn) (Cbz-Leu-Leu-Glu-βNA; configuration not given here) | inactive
O=C(O)C1(c2ccc(-c3ccc(Cl)c(Cl)c3)c(F)c2)CC1 | inactive
COc1cc(/C=C/c2ccccc2)c(C(=O)O)c(O)c1CC=C(C)C | inactive
CC1(C)CC[C@]2(C(=O)O)CC[C@]3(C)C(=CCC4[C@@]5(C)C[C@H](O)[C@H](O[C@@H]6O[C@H](CO)[C@@H](O)[C@H](O)[C@H]6O)[C@@](C)(CO)C5[C@H](O)C[C@]43C)[C@@H]2C1 (stereo not given in full) | inactive
COc1cc2nc(=NC(=O)c3cccnc3)n3c(c2cc1OC)NCC3 | inactive
Cc1ccccc1-c1cc(N2CCN(C)CC2)ncc1N(C)C(=O)C(C)(C)c1cc(C(F)(F)F)cc(C(F)(F)F)c1 | inactive
CC(=O)OCC1=CCC2C(C)(C)CCCC2(C)C12CCC(C)(CC(=O)O)O2 (stereo not given) | inactive
CSC(=O)OCC1=C[C@@H]2OC(=O)C3=CO[C@@H](O[C@@H]4O[C@H](CO)[C@@H](O)[C@H](O)[C@H]4O)[C@H]1[C@@H]32 | inactive
COC(=O)C(CC1CCCC1)c1ccc(S(C)(=O)=O)cc1 (stereo not given) | inactive
CC(C)(O)C(O)C(=O)OCc1ccc(O[C@@H]2O[C@H](CO)[C@@H](O)[C@H](O)[C@H]2O)cc1 (stereo not given in full) | inactive
CSCC1OC(n2cnc3c(N)ncnc32)C(O)C1O (stereo not given) | inactive
C[C@@H]1O[C@@H](O[C@@H]2\C=C/C=C\C=C/C=C\C[C@H](C)OC(=O)/C=C\[C@H]3O[C@@H]3C[C@H](O)C[C@]3(O)C[C@@H](O)[C@@H](C(=O)O)[C@H](C2)O3)[C@H](O)[C@H](N)[C@@H]1O | inactive
O=C(/C=C/c1ccc(O)cc1)OC[C@H]1O[C@H](O[C@@]2(CO)O[C@@H](CO)[C@H](O)[C@H]2O)[C@H](O)[C@@H](O)[C@@H]1O | inactive
CCOc1ccc(-c2cc(NC(=O)c3c(F)cccc3F)c(C(=O)O)s2)cc1 | inactive
N#Cc1cccc(-c2nc(-c3cccnc3)no2)c1 | inactive
CC1OC(OC2C(OC3C(O[C@H]4CC[C@@]5(C)C(CC[C@]6(C)C5CC=C5C7CC(C)(C)CC(O)[C@]7(C)CC[C@]56C)C4(C)C)OC(C(=O)O)C(O)C3O)OCC(O)C2O)C(O)C(O)C1O (stereo not given in full) | 30% [at 11.6 µM] (inactive)
CC(=O)OC12CC(C)C(O)C1/C=C(/COC1OC(CO)C(O)C(O)C1O)CCC1C(/C=C(\C)C2=O)C1(C)C (stereo not given) | inactive
Cc1onc(-c2c(Cl)cccc2Cl)c1CC(=O)NCc1ccc(OCC(F)(F)F)nc1 | inactive
Cc1occc(=O)c1O[C@@H]1O[C@H](CO[C@@H]2OC[C@](O)(CO)[C@H]2O)[C@@H](O)[C@H](O)[C@H]1O | inactive
CC(C)(O)C1CC=C(C(=O)OC[C@H]2O[C@@H](OC(=O)C3=CCC(C(C)(C)O)CC3)[C@H](O)[C@@H](O)[C@@H]2O)CC1 (stereo not given in full) | inactive
FC(F)(F)c1nnc2c(Sc3ccccc3)nc3ccc(Cl)cc3n12 | inactive
COc1ccc(-n2c(SCC#N)nc3sc4c(c3c2=O)CCCC4)cc1 | inactive
O=C(OCC1=CC(Cl)C(O)C(OC(=O)c2ccccc2)C1O)c1ccccc1 (stereo not given) | inactive
COC(=O)C(Cc1ccccc1)NC(=O)c1ccccc1 (stereo not given) | inactive
COc1cccc(C(=O)NCCNc2nc3cc(C)cc(C)c3cc2C#N)c1 | inactive
CC(=O)OCC(Cc1ccccc1)NC(=O)C(Cc1ccccc1)NC(=O)c1ccccc1 (stereo not given) | inactive
COC(O)(CC(C)C)C1Oc2cc(C)[nH]c(=O)c2O1 (stereo not given) | inactive
CC(=O)NC1CC(=O)C23C(=O)NC(Cc4c[nH]c5ccccc45)C2C(C)=C(C)C(O)C3/C=C/CC(C)/C=C(/C)C(O)C1O (stereo not given) | inactive
CC(CC(C)O[C@@H]1O[C@H](CO)[C@@H](O)[C@H](O)[C@H]1O)OC(=O)/C=C/c1ccc(O)cc1 (stereo not given in full) | inactive
